# EXPERIMENT SUMMARY: Cytotoxicity MTT assay
# Assay type: cell-based
# STUDY CONDITIONS: human, HCT-116 cells (colon cancer), 48 h treatment, 1 to 100 μg/mL
VALUE TYPE: IC50 at 48 h (µg/mL)
# value in µg/mL; strip the unit string

# input Data request, read-out IC50 at 48 h, for CCCCC(C)CC(O)(C=C(CC)C(O)CC(=O)O)CC (stereo not shown) [Compound 3, Woodylide C]
# output 9.4
